All values here come from paper PMC3124361.

Assay: In vitro metabolism in human liver microsomes
Assay type: in vitro ADME
Details: predicted hepatic extraction ratio
# maps each entry to its Eh Human
API note: the answer field is a bare number with no unit suffix.

Example compounds with recorded Eh Human:
>>> endpoint_value("C#Cc1ccc(Nc2cc(C)nc3ncnn23)cc1")
0.31
>>> endpoint_value("Cc1cc(Nc2ccc(C3CC3)cc2)n2ncnc2n1")
0.75
>>> endpoint_value("Cc1cc(Nc2ccc(C(C)C)cc2)n2ncnc2n1")
0.64

Let us examine a further case.
Q: Data request, read-out Eh Human, for `Cc1cc(Nc2ccc(N(C)C)cc2)n2ncnc2n1`
Result: 0.4

###

Test: Non-equilibrium solubility by nephelometry, pH 6.5
Format: physicochemical
Settings: phosphate buffer
Listing: solubility of selected molecules

>>> endpoint_value("Cc1cc(Nc2ccc3c(c2)CCC3)n2ncnc2n1")
"47 to 94 µM"
>>> endpoint_value("CCCc1ccc(Nc2cc(C)nc3ncnn23)cc1")
"187 to 374 µM"

Q: Which value of solubility has been reported for `C#Cc1ccc(Nc2cc(C)nc3ncnn23)cc1` in the records?
Result: 100 to 200 µM

Q: Thanks! And `Cc1cc(Nc2ccc(N(C)C)cc2)n2ncnc2n1` ?
Result: 93 to 186 µM

Q: Same read-out for `CCc1ccc(Nc2cc(C)nc3ncnn23)cc1` ?
Result: 25 to 50 µM

Q: Likewise for `Cc1cc(Nc2cc(F)c(C(F)(F)F)c(F)c2)n2ncnc2n1` ?
Result: 9 to 18 µM

Q: Next molecule: `Cc1cc(Nc2ccc(S(F)(F)(F)(F)F)cc2)n2ncnc2n1`
Result: 71 to 142 µM

###

Target: human albumin (Homo sapiens, UniProt P02768)
Sequence (P02768 25-609): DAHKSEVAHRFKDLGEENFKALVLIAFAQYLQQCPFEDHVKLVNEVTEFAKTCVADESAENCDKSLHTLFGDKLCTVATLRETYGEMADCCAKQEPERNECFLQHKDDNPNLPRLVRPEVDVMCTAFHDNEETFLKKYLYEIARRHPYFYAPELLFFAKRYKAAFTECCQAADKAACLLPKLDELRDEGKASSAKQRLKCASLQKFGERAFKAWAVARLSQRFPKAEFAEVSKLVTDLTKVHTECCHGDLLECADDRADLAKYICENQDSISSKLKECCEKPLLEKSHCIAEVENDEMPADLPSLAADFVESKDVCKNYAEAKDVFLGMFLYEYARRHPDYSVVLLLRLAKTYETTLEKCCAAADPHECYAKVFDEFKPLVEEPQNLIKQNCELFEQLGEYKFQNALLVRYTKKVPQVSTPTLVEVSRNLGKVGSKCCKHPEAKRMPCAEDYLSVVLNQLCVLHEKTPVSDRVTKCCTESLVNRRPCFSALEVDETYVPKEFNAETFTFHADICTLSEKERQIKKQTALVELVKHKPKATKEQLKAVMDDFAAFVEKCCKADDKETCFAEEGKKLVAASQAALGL
Test: Protein binding estimated on human albumin column
Type: in vitro ADME
Conditions: human albumin chromatographic method
List of Human Plasma Binding values.
Hi! Could you send only the number? It should be in %, unit omitted.

>>> endpoint_value("Cc1cc(Nc2ccc(C(C)C)cc2)n2ncnc2n1")
91.3

Q: Please report the recorded Human Plasma Binding for `CCc1ccc(Nc2cc(C)nc3ncnn23)cc1` .
Result: 88.0

Q: Please give the result for `Cc1cc(Nc2ccc3c(c2)CCC3)n2ncnc2n1` too.
Result: 92.5

Q: Consider next the compound `Cc1cc(Nc2ccc3sccc3c2)n2ncnc2n1` in the same way.
Result: 89.8

Q: Try this compound too: `Cc1cc(NC2Cc3ccccc3C2)n2ncnc2n1`
Result: 76.1

Q: Now the same for `Cc1cc(Nc2ccc(SC(F)(F)F)cc2)n2ncnc2n1`
Result: 96.1

Q: How about this compound: `Cc1cc(Nc2ccc3ccccc3c2)n2ncnc2n1`
Result: 93.8

Q: Could you do the same for `CCCc1ccc(Nc2cc(C)nc3ncnn23)cc1` , please?
Result: 93.5

Q: Same lookup for `Cc1cc(Nc2ccc(C(F)(F)F)cc2)n2ncnc2n1` , please.
Result: 86.9

Q: // same read-out, input: `Cc1cc(Nc2ccc3c(c2)CCCC3)n2ncnc2n1`
Result: 95.5

###

Assay: In vitro metabolism in human liver microsomes
Format: in vitro ADME
Details: predicted hepatic extraction ratio
recorded-metric: Eh Human

>>> endpoint_value("Cc1cc(Nc2ccc(S(F)(F)(F)(F)F)cc2)n2ncnc2n1 [Compound 21]")
"<0.2/<0.2"
>>> endpoint_value("Cc1cc(Nc2ccc3c(c2)OCO3)n2ncnc2n1 [Compound 35]")
"0.37/ND"
>>> endpoint_value("CCc1ccc(Nc2cc(C)nc3ncnn23)cc1 [Compound 7]")
"0.77/ND"

Below: the item to evaluate.
Q: Field request: Eh Human | item: Cc1cc(Nc2cc(F)c(C(F)(F)F)c(F)c2)n2ncnc2n1 [Compound 32]
Result: <0.2/<0.2
